target: human serum albumin (HSA) (human, UniProt P02768 25-609); experiment: fluorescence polarization
For each entry below, report its pKd value.
Field pKd (float): negative decimal logarithm of the concentration in molar.

-- ask I am curious: what pKd value has been reported for EYEKEYEK (not fully specified; N-terminal cap based on peptide 266 with 2-naphthalenecarboxylic acid; Lys 4 side chain acylated with palmitic acid; 5(6)-FAM on the side chain of the additional C-terminal Lys) [peptide 284 (albumin tag variant, 2-naphthalenecarboxylic acid)] ?
-- reply 6.83

-- ask I am curious: what pKd value has been reported for EYEKEYEK (not fully specified; N-terminal cap based on peptide 266 with biphenyl-3-carboxylic acid; Lys 4 side chain acylated with palmitic acid; 5(6)-FAM on the side chain of the additional C-terminal Lys) [peptide 282 (albumin tag variant, biphenyl-3-carboxylic acid)] ?
-- reply 6.88
